Origin of values: ChEMBL document CHEMBL1145273

Each entry below carries its reported inhibition.
- target of assay: Proto-oncogene tyrosine-protein kinase Src (Homo sapiens) (UniProt P12931)
- Sequence (P12931 2-536 limits assumed): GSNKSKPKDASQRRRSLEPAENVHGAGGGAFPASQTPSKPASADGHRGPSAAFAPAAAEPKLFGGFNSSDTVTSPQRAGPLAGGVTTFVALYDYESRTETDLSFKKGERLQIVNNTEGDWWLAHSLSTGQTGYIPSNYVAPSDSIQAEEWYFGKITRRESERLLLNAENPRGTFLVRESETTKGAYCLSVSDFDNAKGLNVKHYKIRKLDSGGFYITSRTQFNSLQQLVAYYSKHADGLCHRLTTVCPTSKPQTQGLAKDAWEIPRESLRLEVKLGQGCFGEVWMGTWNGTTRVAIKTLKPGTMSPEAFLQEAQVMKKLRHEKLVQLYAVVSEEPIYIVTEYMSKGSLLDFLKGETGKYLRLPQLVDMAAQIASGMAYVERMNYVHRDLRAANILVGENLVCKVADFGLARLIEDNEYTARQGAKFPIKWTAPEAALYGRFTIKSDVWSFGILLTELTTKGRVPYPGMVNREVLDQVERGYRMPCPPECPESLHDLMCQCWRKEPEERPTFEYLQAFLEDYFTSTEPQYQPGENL
- assay text: Inhibition of protein tyrosine kinase mediated [gamma-32P]-ATP incorporation at 10 ug/mL in src-transformed NIH3T3

See these solved cases before continuing.
| cpd smiles | inhibition |
| --- | --- |
| COC(=O)c1[nH]c(C(=O)OC)c(-c2c[nH]c3ccc(O)cc23)c1-c1c[nH]c2ccccc12 | < 50% |
| COC(=O)c1[nH]c(C(=O)OC)c(-c2c[nH]c3ccccc23)c1-c1c[nH]c2ccccc12 | < 50% |
| O=C1NCc2c1c1c3ccc(O)cc3[nH]c1c1[nH]c3ccccc3c21 | > 80% |

Now for another entry.
Name the recorded inhibition for O=C1NC(=O)C(c2c[nH]c3ccccc23)=C1c1c[nH]c2ccccc12 .
80%
